Test system: HCT-116 human colon cancer cells
TEST PROTOCOL: MTT growth inhibition, human colon cancer cells
Type: cell-based
RUN PARAMETERS: read-out: IC50, cell viability (MTT); HCT-116, 24 hours, 0 to 80 µM
ATTRIBUTE MEASURED: pIC50
Answers are plain numbers, as −log10 of the molar value.

input: Query pIC50 on HCT-116 human colon cancer cells for CCCCC/C=C/C(=O)CCc1ccc(O)c(OC)c1 [[6]-shogaol]
output: 4.70

----------
TEST PROTOCOL: Kinetic study of [6]-shogaol metabolism to M6 in human liver microsomes
Format: in vitro ADME
RUN PARAMETERS: probe [6]-shogaol (substrate)
ATTRIBUTE MEASURED: Km at 30 min (µM)
Give bare numbers, in µM.

input: What does the data say about its Km at 30 min? Entry: CCCCCC=CC(O)CCc1ccc(O)c(OC)c1 (stereo not shown)
output: 45.6

----------
TEST PROTOCOL: Metabolic profile of [6]-shogaol in mouse liver microsomes
Assay type: in vitro ADME, CD-1 mouse
RUN PARAMETERS: mouse liver microsomes 0.5 mg/mL, [6]-shogaol 50 µM, 30 min
ATTRIBUTE MEASURED: Relative abundance of metabolite formed from [6]-shogaol

STRUCTURE NOTATION | REPORTED
CCCCC/C=C/C(=O)/C=C/c1ccc(O)c(OC)c1 | minor

----------
TEST PROTOCOL: Metabolic profile of [6]-shogaol in dog liver microsomes
Type: in vitro ADME, beagle dog
RUN PARAMETERS: dog liver microsomes 0.5 mg/mL, [6]-shogaol 50 µM, 30 min
ATTRIBUTE MEASURED: Relative abundance of metabolite formed from [6]-shogaol

STRUCTURE NOTATION | REPORTED
CCCCC/C=C/C(=O)/C=C/c1ccc(O)c(OC)c1 | minor

----------
TEST PROTOCOL: Metabolic profile of [6]-shogaol in rat liver microsomes
Format: in vitro ADME, Sprague-Dawley rat
RUN PARAMETERS: rat liver microsomes 0.5 mg/mL, [6]-shogaol 50 µM, 30 min
ATTRIBUTE MEASURED: Relative abundance of metabolite formed from [6]-shogaol

STRUCTURE NOTATION | REPORTED
CCCCC/C=C/C(=O)/C=C/c1ccc(O)c(OC)c1 | minor
